target: hGLP-1R (Homo sapiens, UniProt P43220); assay: cell-based or functional assay
Sequence (P43220 24-463): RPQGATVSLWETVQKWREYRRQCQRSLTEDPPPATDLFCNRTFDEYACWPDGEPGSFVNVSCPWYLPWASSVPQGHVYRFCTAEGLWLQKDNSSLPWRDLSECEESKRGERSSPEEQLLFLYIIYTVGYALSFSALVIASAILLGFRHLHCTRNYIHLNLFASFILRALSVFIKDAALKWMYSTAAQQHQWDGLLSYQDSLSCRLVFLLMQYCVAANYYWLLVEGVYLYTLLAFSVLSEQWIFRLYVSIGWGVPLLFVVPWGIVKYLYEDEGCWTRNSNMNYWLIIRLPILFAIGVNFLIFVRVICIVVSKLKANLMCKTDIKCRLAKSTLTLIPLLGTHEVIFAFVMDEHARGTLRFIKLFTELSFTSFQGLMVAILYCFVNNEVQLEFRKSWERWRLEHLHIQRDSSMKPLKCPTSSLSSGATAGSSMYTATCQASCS
Label condition met when Relative cAMP EC50 is at or above 0.6 nM; anything below gets condition not met.

(Q) Entry YXQGTFTSDXSXXLDKKAQXAFIEYLIAGGPSSGEPPPSGTEEE (synthetic construct; SITE 2: note = 2-Aminoisobutyric Acid; SITE 10: note = 3-(4-Pyridyl)-L-alanine; SITE 12: note = L-ornithine; SITE 13: note = alpha-methyl-leucine; SITE 17: note = Lysine is chemically modified through conjugation of the epsilon-amino group of the Lysine side chain with (gamma-Gl)) [Example 982] : is its Relative cAMP EC50 no less than 0.6 nM?
(A) condition met

(Q) And YXQGTXTSDXXIXLDXKAQXEFIEXLIEGGPSSGAPPPSGSE (Aib, αMe residues, 4Pal, Orn, Me4Pal; acylated K; amide; synthetic construct; SITE 2: note = 2-Aminoisobutyric Acid; SITE 6: note = alpha-methyl-L-phenylalanine; SITE 10: note = 3-(4-Pyridyl)-L-alanine; SITE 11: note = alpha-methyl-L-serine; SITE 13: note = alpha-methyl-leucine; SITE 16: note = L-ornithine; SITE 17: note = Lysine is chemically modified th) [Example 1172] ?
(A) condition not met

(Q) And YXQGTFTSDXSQXLDXKAQXAFIEXLIAGGPSSGAPPPSGSEE (non-natural residues; C18 diacid-γ-Glu acyl on Lys; C-terminal amide; synthetic construct; SITE 2: note = 2-Aminoisobutyric Acid; SITE 10: note = 3-(4-Pyridyl)-L-alanine; SITE 13: note = alpha-methyl-leucine; SITE 16: note = L-ornithine; SITE 17: note = Lysine is chemically modified through conjugation of the epsilon-amino group of the Lysine side chain with D-Glutami) [Example 1074] ?
(A) condition met

(Q) And YXQGTFTSDFSKXLDKKAQXAFIEYLLEGGPSSGEPPPEEG (not fully specified; Aib, αMeL; acylated Lys; C-terminal amide; synthetic construct; SITE 2: note = 2-Aminoisobutyric Acid; SITE 13: note = alpha-methyl-leucine; SITE 17: note = Lysine is chemically modified through conjugation of the epsilon-amino group of the Lysine side chain with (2-[2-(2-Amino-ethoxy)-ethoxy]-acetyl)-(gamma-Glu)-CO-(CH2) 18-CO2H; SITE 20: n) [Example 35] ?
(A) condition met

Field: next binder
(Q) Entry YXQGTXTSDYSILLDXKAQXAFIEYLLEGGPSSGAPPPS (synthetic construct; SITE 2: note = 2-Aminoisobutyric Acid; SITE 6: note = alpha-methyl-2-fluoro-L-phenylalanine; SITE 16: note = L-ornithine; SITE 17: note = Lysine is chemically modified through conjugation of the epsilon-amino group of the Lysine side chain with (gamma-Glu)2-CO-(CH2)16-CO2H; SITE) [Example 428] : is its Relative cAMP EC50 no less than 0.6 nM?
(A) condition not met
